Where these numbers come from: patent US20160185837A1

Test target: T1, mouse GLP-1 receptor (mouse, UniProt O35659 22-463)
T1 sequence (looked up): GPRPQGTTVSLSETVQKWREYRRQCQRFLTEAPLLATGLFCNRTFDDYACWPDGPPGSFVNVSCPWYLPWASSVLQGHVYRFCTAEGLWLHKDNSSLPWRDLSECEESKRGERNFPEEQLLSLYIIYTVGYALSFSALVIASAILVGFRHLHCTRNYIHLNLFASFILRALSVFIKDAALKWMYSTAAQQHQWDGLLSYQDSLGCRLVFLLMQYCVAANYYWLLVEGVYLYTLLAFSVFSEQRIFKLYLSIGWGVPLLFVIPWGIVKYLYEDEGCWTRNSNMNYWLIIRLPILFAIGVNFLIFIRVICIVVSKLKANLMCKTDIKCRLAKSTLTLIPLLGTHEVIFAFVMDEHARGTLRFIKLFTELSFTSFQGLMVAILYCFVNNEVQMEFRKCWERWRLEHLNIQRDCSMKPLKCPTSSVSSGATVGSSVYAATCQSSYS
Protocol: cell-based or functional assay
Property measured: cAMP EC50, Batch 2 (nM)
Give bare numbers, in nM.

Solved entries (count: 3):
IP295 (Fc fusion) YSEGTFTSDYSKLLEEEAVRLFIEWLLAGGPSSGAPPPSGGGGGSGGGGSGGGGSGGGGSATHTCPPC
0.241
IP292 (Fc fusion) YSEGTFTSDYSKLLEEEAVRCFIEWLVKGGPGGGAPPCGGGGGGGGGGGGGGGGGGGACPPC
1.32
IP324 (Fc fusion) YSEGTFTSDYSKLLEEEAVRLFIEWLVKGPGGGGGSGGGGSGGGGSGGGGSGGGGSGGGGSGGGGSA
0.391

Reported cAMP EC50, Batch 2 ( IP201 (Fc fusion) YSEGTFTSDYSKLLEEEAVRLFIEWLLAGPSSGAPPPSAAAGGSGSTASSGSGSATGGGGAATHTCPPCPAPEF ) = 0.41
